- Settings: in n-propanol, 338.15 K

Smiles notation | solubility (mole fraction)
C[C@H]1[C@H](C)CC[C@]2(C(=O)O[C@@H]3O[C@H](CO[C@@H]4O[C@H](CO)[C@@H](O[C@@H]5O[C@@H](C)[C@H](O)[C@@H](O)[C@H]5O)[C@H](O)[C@H]4O)[C@@H](O)[C@H](O)[C@H]3O)CC[C@]3(C)C(=CC[C@@H]4[C@@]5(C)C[C@@H](O)[C@H](O)[C@@](C)(CO)[C@@H]5CC[C@]43C)[C@H]12 | 0.00023

* * *

- Settings: in methanol, 318.15 K

Smiles notation | solubility (mole fraction)
C[C@H]1[C@H](C)CC[C@]2(C(=O)O[C@@H]3O[C@H](CO[C@@H]4O[C@H](CO)[C@@H](O[C@@H]5O[C@@H](C)[C@H](O)[C@@H](O)[C@H]5O)[C@H](O)[C@H]4O)[C@@H](O)[C@H](O)[C@H]3O)CC[C@]3(C)C(=CC[C@@H]4[C@@]5(C)C[C@@H](O)[C@H](O)[C@@](C)(CO)[C@@H]5CC[C@]43C)[C@H]12 | 0.00182

* * *

- Settings: in n-butanol, 328.15 K
Assay metric: solubility (mole fraction)

Smiles notation | Reported value
C[C@H]1[C@H](C)CC[C@]2(C(=O)O[C@@H]3O[C@H](CO[C@@H]4O[C@H](CO)[C@@H](O[C@@H]5O[C@@H](C)[C@H](O)[C@@H](O)[C@H]5O)[C@H](O)[C@H]4O)[C@@H](O)[C@H](O)[C@H]3O)CC[C@]3(C)C(=CC[C@@H]4[C@@]5(C)C[C@@H](O)[C@H](O)[C@@](C)(CO)[C@@H]5CC[C@]43C)[C@H]12 | 8.03e-05

* * *

- Settings: in n-propanol, 343.15 K

Smiles notation | solubility (mole fraction)
C[C@H]1[C@H](C)CC[C@]2(C(=O)O[C@@H]3O[C@H](CO[C@@H]4O[C@H](CO)[C@@H](O[C@@H]5O[C@@H](C)[C@H](O)[C@@H](O)[C@H]5O)[C@H](O)[C@H]4O)[C@@H](O)[C@H](O)[C@H]3O)CC[C@]3(C)C(=CC[C@@H]4[C@@]5(C)C[C@@H](O)[C@H](O)[C@@](C)(CO)[C@@H]5CC[C@]43C)[C@H]12 | 0.000304

* * *

- Settings: in water, 303.15 K
Assay metric: solubility (mole fraction)

Smiles notation | Assay metric | Reported value
C[C@H]1[C@H](C)CC[C@]2(C(=O)O[C@@H]3O[C@H](CO[C@@H]4O[C@H](CO)[C@@H](O[C@@H]5O[C@@H](C)[C@H](O)[C@@H](O)[C@H]5O)[C@H](O)[C@H]4O)[C@@H](O)[C@H](O)[C@H]3O)CC[C@]3(C)C(=CC[C@@H]4[C@@]5(C)C[C@@H](O)[C@H](O)[C@@](C)(CO)[C@@H]5CC[C@]43C)[C@H]12 | solubility (mole fraction) | 2.1e-06

* * *

- Settings: in ethanol, 333.15 K

Smiles notation | solubility (mole fraction)
C[C@H]1[C@H](C)CC[C@]2(C(=O)O[C@@H]3O[C@H](CO[C@@H]4O[C@H](CO)[C@@H](O[C@@H]5O[C@@H](C)[C@H](O)[C@@H](O)[C@H]5O)[C@H](O)[C@H]4O)[C@@H](O)[C@H](O)[C@H]3O)CC[C@]3(C)C(=CC[C@@H]4[C@@]5(C)C[C@@H](O)[C@H](O)[C@@](C)(CO)[C@@H]5CC[C@]43C)[C@H]12 | 0.000217
